Data origin, for the record: ChEMBL document CHEMBL1201862

system: HCT-116; assay: NCI tumour cell line growth inhibition, 48 h
Active and inactive are the calls of the source. Cut-off read from the data, not from the text of the source: active = GI50 up to about 1.1 µM and inactive = higher.
Permitted responses: true (1) = active, false (0) = inactive

(Q) Assay result, entry CCOC(=O)C(C)(C)Oc1ccc(Cl)cc1 [CLOFIBRATE] — outcome?
(A) false (0)

(Q) Look up the recorded call for COc1cccc(C2CC(=O)c3cc(N4CCCC4)ccc3N2)c1 (configuration not stated) in this test.
(A) true (1)

(Q) Status in this test for CN(C)/N=N/c1nc2c(c(=O)n(C)c(=O)n2C)n1CC1CO1 (configuration not stated) ?
(A) false (0)

(Q) Can you look up the reported call for CN(C)c1n/c(=N/c2cccc(Cl)c2)ss1 for me?
(A) false (0)

(Q) What was the test verdict on CCOC(=O)CCC(C(=O)OCC)n1nnc2cc(Nc3c(C)[n+]([O-])c4cc(Cl)ccc4[n+]3[O-])ccc21 (configuration not stated) ?
(A) false (0)

(Q) Test call, this molecule: CC(C)Cn1cnc2c(NCC(C)O)nc3ccccc3c21 (configuration not stated)
(A) false (0)

(Q) Please share the test call associated with CCCCc1c2c(nc3c1CCc1cc4cc5c(nc4nc1-3)-c1nc3c(c(CCCC)c1CC5)CCCC3)CCCC2 .
(A) false (0)

###

tested on: UO-31; test: NCI tumour cell line growth inhibition, 48 h
Active and inactive are the calls of the source. No stated cut-off is given here; in the data, active = GI50 up to about 1.1 µM and inactive = higher.
Select the matching outcome among label 1 = active, label 0 = inactive

(Q) # fetch the recorded call for O=C(NCCCCCCCCCCCCNC(=O)c1cccc2ccccc12)c1cccc2ccccc12 here
(A) label 0

(Q) Can you look up the reported call for O=C(O)CC(CC(=O)O)C(=O)O for me?
(A) label 0

(Q) What did the test return for CCOC(=O)c1ccc(N[C@@H]2c3cc4c(cc3C(c3cc(OC)c(O)c(OC)c3)[C@H]3C(=O)OCC32)OCO4)cc1 (stereo not given in full) ?
(A) label 1

(Q) Recorded test outcome, item Cn1cnc([N+](=O)[O-])c1Sc1nc2cccnc2[nH]1
(A) label 0

(Q) Given N/C(=N\O)N/N=C\c1cc([N+](=O)[O-])cc([N+](=O)[O-])c1O , state the outcome it received in this test.
(A) label 0

(Q) Which outcome was assigned to COC(CN(C(C)=O)C1CCC2(SCCS2)c2[nH]c3ccccc3c21)OC (stereo not given) in this test?
(A) label 0

(Q) Record request — test call for CSc1nc(=S)[nH]c2c1c(C)nn2-c1ccccc1
(A) label 0

(Q) Answer briefly: the call reported for O=C(CSc1ncccn1)N/N=C/c1ccccc1OCc1ccccc1 in this assay.
(A) label 0

(Q) Recorded call for CC(C)(O)CO/N=C1\C(=C2\C(=O)Nc3ccccc32)Nc2ccccc21 ?
(A) label 1

(Q) For CC(C)(C)NN=C1C(C)(C)C(=NNC(C)(C)C)C1(C)C , what call appears in the results of this test?
(A) label 0

###

tested on: HT-29; assay: NCI tumour cell line growth inhibition, 48 h
Active and inactive are the calls of the source. Rule as the data show it: active = GI50 up to about 1.1 µM and inactive = higher.
Could you please report measured GI50 for the items listed next?

(Q) GI50 for NC(=O)C1(c2ccccc2)Nc2ccccc2S1 (stereo unspecified) ?
(A) > 100 µM (inactive)

(Q) Which measured GI50 value corresponds to Cc1nc2c(n1C(C)(C)C)C(=O)c1ccccc1C2=O ?
(A) 44.1 µM (inactive)

(Q) I'd like to know its GI50. The molecule in question is COc1ccc(C2CCc3nc4nc(N)nc(N)c4cc3C2)cc1 (stereo unspecified)
(A) 29.2 µM (inactive)

(Q) Query (molecule): O=C(O)CSc1nnc(Cc2ccccc2)[nH]1 ; field requested: GI50
(A) > 100 µM (inactive)

(Q) Please give the measured GI50 for this molecule: CO[C@H]1C[C@](C)(O)Cc2cc3c(c(O)c21)C(=O)c1c(O)cc2c(c1C3=O)O[C@@H]1O[C@@]2(C)[C@H](O)[C@@H](N(C)C)[C@@H]1O
(A) 1.94 µM (inactive)

(Q) I'd like to know its GI50. The molecule in question is C=C(C)[C@H]1CC(=O)/C(C)=C\CC/C(C)=C/CC[C@@]2(C)O[C@@H]2C1
(A) 16.3 µM (inactive)

(Q) Please report the recorded GI50 for O=C(O)c1ccc(Nc2ccnc3cc(Cl)ccc23)cc1O .
(A) > 100 µM (inactive)

(Q) Recorded GI50 of CC(C)(C)NN=C1C(C)(C)C(=NNC(C)(C)C)C1(C)C , please.
(A) > 100 µM (inactive)

(Q) Dear colleague, I am looking for the recorded GI50 of the following molecule: COC(CNC(=O)C(C)NC(=O)/C=C/c1ccccc1)OC (stereo unspecified)
(A) > 100 µM (inactive)

(Q) Need GI50, item N#Cc1cccc2c1Nc1ccccc1S2
(A) > 100 µM (inactive)

(Q) Please look up its GI50: O=C(Cc1ccccc1)NNc1nc(NNC(=O)c2ccncc2)nc(Nc2ccccc2)n1
(A) > 10 µM (inactive)

###

test system: KM-20L2; experiment: NCI tumour cell line growth inhibition, 48 h
Activity calls are given as the source filed them. No stated cut-off is given here; in the data, active = GI50 up to about 1.1 µM and inactive = higher.
Classes to choose from: Yes = active, No = inactive

(Q) Tell me the assay call for Cn1cnc([N+](=O)[O-])c1Sc1nc2cccnc2[nH]1 please.
(A) No

(Q) Could you please tell me the result logged for Cc1cc(=O)c2c(O)cc3c(c2o1)CC=C(COC1OC(COC2OC(CO)C(O)C(O)C2O)C(O)C(O)C1O)CO3 (stereo not given) in this assay?
(A) No

(Q) GET /call?item= COc1cccc2c1C(=O)c1c(O)c3c(c(O)c1C2=O)C[C@@](O)(C(=O)CO)CC3OC1CC(O)C(O)C(C)O1 (stereo not given in full) returns the recorded outcome of this test.
(A) Yes

(Q) Please state the recorded outcome for this molecule: CNC(=O)OCc1nc(SSC(C)(C)C)n(C)c1COC(=O)NC
(A) No

(Q) Please state the recorded outcome for this molecule: COC(=O)n1c(C[P+](c2ccccc2)(c2ccccc2)c2ccccc2)cc2ccccc21
(A) No

(Q) Please indicate how the test categorized CC(=O)c1cccc(NCn2nnc3ccccc32)c1 .
(A) No

(Q) // outcome(item) with item = COc1cccc2c1C(=O)c1c(O)c3c(c(O)c1C2=O)C[C@@](O)(/C(C)=N\O)C[C@@H]3OC1CC(N)C(O)C(C)O1 (stereo not given in full)
(A) No

(Q) // outcome(item) with item = O=C(NC(c1ccccc1)C(O)C(=O)OCc1ccc2c(c1)C(=O)c1ccccc1C2=O)c1ccccc1 (stereo not given)
(A) No

(Q) Any idea what this test logged for COc1ccc2c3c1C(=O)CCC3CO2 (stereo not given) ?
(A) No

(Q) Which outcome was assigned to CCOC(=O)C(C)(c1c(C)[nH]c2ccccc12)c1c(C)[nH]c2ccccc12 in this test?
(A) No

###

Reported GI50 values, HCT-15.
Your answer is read as µM, so omit the unit and give the number.

(Q) I am curious: what GI50 value has been reported for O=C1c2c(Br)sc(Br)c2[C@@H](NC(=O)C(F)(F)F)C1Br (stereo not given in full) ?
(A) 1.83

(Q) Fill blank: measured GI50 of the molecule C[C@]12CC[C@H]3[C@@H](CC=C4C[C@@H](O)CC[C@@]43C)[C@@H]1CC[C@@H]2N(CCO)CCO is ____.
(A) 71.4

(Q) # get_value(readout='GI50', item= CCOn1c(C2(CC3CCN(C(=O)c4ccccc4)CC3)OCCO2)cc2ccccc21 )
(A) 22.5

(Q) // lookup GI50 for Cc1c(Cc2ccccc2)n(C(C)OCCN(OC(=O)Oc2ccccc2)C(=O)Oc2ccccc2)c(=O)[nH]c1=O (stereo not given)
(A) 14.6

###

tested on: UACC-257; test: NCI tumour cell line growth inhibition, 48 h
Activity calls are given as the source filed them. Cut-off read from the data, not from the text of the source: active = GI50 up to about 1.1 µM and inactive = higher.
Classes to choose from: t for active, f for inactive

(Q) Hi, sorry to bother you, what did the test record for O=C(CN1C(=O)c2ccccc2C1=O)NC1(C(=O)O)CCCC1 ?
(A) f

(Q) Look up the recorded call for CC(=O)Nc1ccc(-c2nc3ccccc3s2)cc1 in this test.
(A) f

(Q) Could you check what this test reported for COc1ccc2nc(-c3cccc(N(C)C)c3)cc(O)c2c1 ?
(A) t

(Q) Could you check what this test reported for COC(=O)c1cc(Br)c(Br)n1C ?
(A) f

(Q) For CC(O)/C=C/C1OC(=O)CC1Nc1ccc(C=O)cc1 (stereo unspecified) , what call appears in the results of this test?
(A) f

(Q) Please state the recorded outcome for this compound: O=C(OCc1ccccc1)N1N=NC2C1C1CC(OCc3ccccc3)(OCc3ccccc3)C2O1 (stereo unspecified)
(A) f

(Q) Assay outcome for O=NN(CCCl)C(=O)N[C@H]1CC[C@@H](C(=O)O)CC1 : what was it?
(A) f

(Q) Would you mind telling me which call this test gave CCN(CC)Cc1nc(C2CCC([N+](=O)[O-])O2)no1 (stereo unspecified) ?
(A) f

(Q) Which result was noted for this compound in the test: COc1cc(OCc2nc3cc(C(F)(F)F)ccc3nc2-c2ccccc2)cc(OC)c1OC
(A) f

(Q) Assay result, entry Cc1cccc(C2ON=C(c3ccccc3)N2C23CC4CC(CC(C4)C2)C3)c1 (stereo unspecified) — outcome?
(A) f

(Q) Lab log entry: O=c1[nH]c(=O)n([C@H]2C[C@H](O)[C@@H](CO)O2)cc1Br — outcome as called in the assay?
(A) f
